Reported TG by item:
Species on record: Rattus norvegicus
protocol-details: Open TG-GATES - Regimen: Single
Assay type: toxicity, organism-based, Sprague-Dawley
Set-up: regimen Single, gender Male, age 6 weeks
reported-conditions: in vivo, po, 300 mg/kg, 24 h, tissue Plasma, route gavage, dose level Middle

compound	TG, mg/dL
COc1ccc2[nH]c([S+]([O-])Cc3ncc(C)c(OC)c3C)nc2c1 (centres undefined) [OMEPRAZOLE]	139.4
COC1=CC(=O)C[C@@H](C)[C@]12Oc1c(Cl)c(OC)cc(OC)c1C2=O [GRISEOFULVIN]	102
CCOC(=O)CCC(=O)O[C@H]1[C@H](O[C@@H]2[C@@H](C)[C@H](O[C@H]3C[C@@](C)(OC)[C@@H](O)[C@H](C)O3)[C@@H](C)C(=O)O[C@H](CC)[C@@](C)(O)[C@H](O)[C@@H](C)C(=O)[C@H](C)C[C@@]2(C)O)O[C@H](C)C[C@@H]1N(C)C [ERYTHROMYCIN ETHYLSUCCINATE]	87.6
NC(N)=Nc1nc(CSCCC(N)=NS(N)(=O)=O)cs1 [FAMOTIDINE]	86.8
